measurement protocol: reversed-phase LC retention time (C18, 15 min MeOH gradient); higher = more hydrophobic / later elution
conditions: ionization mode: ESI-; ion species: [M-H]-
measurement kind: reversed-phase LC retention time (min)

As a guide, the following entries are already answered.
* CCCCCCCCOc1ccc(C(=O)c2ccccc2)c(O)c1 [2-Hydroxy-4-(octyloxyl)benzophenone] | 19.6
* O=C(O)c1ccc(-c2ccccc2-c2nnn[nH]2)cc1 | 6.27
* CC(C)(Oc1ccc(CCNC(=O)c2ccc(Cl)cc2)cc1)C(=O)O [Bezafibrate] | 12.3
* CC[C@H]1OC(=O)C[C@@H](O)[C@H](C)[C@@H](O[C@@H]2O[C@H](C)[C@@H](O[C@H]3C[C@@](C)(O)[C@@H](O)[C@H](C)O3)[C@H](N(C)C)[C@H]2O)[C@@H](CC=O)C[C@@H](C)C(=O)/C=C/C(C)=C/[C@@H]1CO[C@@H]1O[C@H](C)[C@@H](O)[C@@H](OC)[C@H]1OC | 15.6

(P) C[C@]12C=CC(=O)C=C1CC[C@@H]1[C@@H]2[C@@H](O)C[C@@]2(C)[C@H]1CC[C@]2(O)C(=O)CO
(Q) CC(=O)N(CC(O)CO)c1c(I)c(C(=O)NCC(O)CO)c(I)c(C(=O)NCC(O)CO)c1I (stereo unspecified) [Iohexol]
query: Would you let me know which has the greater reversed-phase LC retention time value, P or Q ? Your answer should be the label of the entry you select.
result: P
(P: 11.9 min, Q: 5.47 min)

(I) CC1(C)CC(NC(=O)c2cccc(C(=O)NC3CC(C)(C)NC(C)(C)C3)c2)CC(C)(C)N1
(II) CCCCC(CC)COC(=O)CC(C(=O)OCC(CC)CCCC)S(=O)(=O)O (stereo unspecified) [Dioctylsulfosuccinate]
query: Would you let me know which has the greater reversed-phase LC retention time value, I or II ? Your answer should be the label of the entry you select.
result: II

(I) O=C(c1ccc(O)cc1O)c1ccc(O)cc1O [2,2',4,4'-Tetrahydroxybenzophenone]
(II) CC(=O)OCC(=O)[C@@]1(O)CC[C@H]2[C@@H]3CCC4=CC(=O)CC[C@]4(C)[C@H]3[C@@H](O)C[C@@]21C [Hydrocortisonacetate]
query: Would you let me know which has the greater reversed-phase LC retention time value, I or II ? Your answer should be the label of the entry you select.
result: II
(II: 13.7 min, I: 8.54 min)

Values were extracted from the supplement of paper PMC12613149.
